# Tested on: Nrf2 (Mus musculus)
# experiment_summary: Activation of Nrf2 in mouse Hepa1c1c7 cells assessed as increase in NQO1 activity at 0.4 uM using menadione as substrate incubated for 20 mins followed by substrate addition and measured after 30 mins by spectrophotometry relative to control
# particulars: filed as activator, time 50.0 min
readout_label: T/C

- given_smiles: "Cc1ccccc1NC(=O)CSc1nc2c(I)cc(I)cc2c(=O)n1-c1ccc(S(N)(=O)=O)cc1"
  readout_label: "T/C"
  val: 1.04
- given_smiles: "COc1ccc(NC(=O)CSc2nc3c(I)cc(I)cc3c(=O)n2-c2ccc(S(N)(=O)=O)cc2)cc1"
  readout_label: "T/C"
  val: 1.01
- given_smiles: "CCc1ccc(NC(=O)CSc2nc3c(I)cc(I)cc3c(=O)n2-c2ccc(S(N)(=O)=O)cc2)cc1"
  readout_label: "T/C"
  val: 0.98
- given_smiles: "NS(=O)(=O)c1ccc(-n2c(S)nc3c(I)cc(I)cc3c2=O)cc1"
  readout_label: "T/C"
  val: 1.01
- given_smiles: "COc1cc(NC(=O)CSc2nc3c(I)cc(I)cc3c(=O)n2-c2ccc(S(N)(=O)=O)cc2)cc(OC)c1"
  readout_label: "T/C"
  val: 1
- given_smiles: "Cc1cccc(NC(=O)CSc2nc3c(I)cc(I)cc3c(=O)n2-c2ccc(S(N)(=O)=O)cc2)c1"
  readout_label: "T/C"
  val: 1.05
- given_smiles: "NS(=O)(=O)c1ccc(-n2c(SCC(=O)Nc3ccccc3)nc3c(I)cc(I)cc3c2=O)cc1"
  readout_label: "T/C"
  val: 1.03
- given_smiles: "Cc1ccc(NC(=O)CSc2nc3c(I)cc(I)cc3c(=O)n2-c2ccc(S(N)(=O)=O)cc2)cc1"
  readout_label: "T/C"
  val: 1.01
- given_smiles: "Cc1cccc([N+](=O)[O-])c1NC(=O)CSc1nc2c(I)cc(I)cc2c(=O)n1-c1ccc(S(N)(=O)=O)cc1"
  readout_label: "T/C"
  val: 0.95
